measured on: AKT1 (human) (UniProt P31749)
Sequence (P31749 whole entry, looked up): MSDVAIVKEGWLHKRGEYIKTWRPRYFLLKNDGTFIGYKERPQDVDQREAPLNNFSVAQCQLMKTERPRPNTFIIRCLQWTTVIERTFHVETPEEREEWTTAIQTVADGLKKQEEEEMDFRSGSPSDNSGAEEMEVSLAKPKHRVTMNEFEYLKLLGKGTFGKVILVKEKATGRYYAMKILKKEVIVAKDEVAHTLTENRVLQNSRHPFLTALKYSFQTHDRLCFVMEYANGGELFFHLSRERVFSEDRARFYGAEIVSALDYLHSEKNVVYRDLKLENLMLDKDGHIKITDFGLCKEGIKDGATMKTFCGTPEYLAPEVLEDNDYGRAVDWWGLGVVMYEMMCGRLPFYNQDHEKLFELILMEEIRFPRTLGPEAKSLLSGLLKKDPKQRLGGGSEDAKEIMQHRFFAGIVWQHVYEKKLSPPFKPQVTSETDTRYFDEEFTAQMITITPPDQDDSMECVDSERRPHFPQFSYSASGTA
test: radiometric filter-binding kinase assay, Kinase HotSpot
experimental context: compound 0.5 µM; ATP 10 µM
This section presents molecules with their documented residual activity values.
Just the number in %, nothing appended.

Solved entries:
residual activity in this record for O=c1c2ccccc2[nH]c(=S)n1CCN1CCC(=C(c2ccc(F)cc2)c2ccc(F)cc2)CC1 : 98.3

residual activity in this record for N#C/C(=C1/Nc2ccccc2S1)c1ccnc(NCCc2cccnc2)n1 : 104

residual activity in this record for O=c1c(-c2ccc(F)cc2)c(-c2ccncc2)[nH]n1-c1ccc(Cl)cc1 : 96.4

Read the next record carefully.
residual activity in this record for COc1cc2ncnc(Nc3ccc(O)c(Br)c3)c2cc1OC : 94

----------
measured on: PKN2 (human)
test: radiometric filter-binding kinase assay, Kinase HotSpot
experimental context: compound 0.5 µM; ATP 10 µM
endpoint name: residual activity (%)
Just the number in %, nothing appended.

Summary: COc1cc2c(N3CCN(C(=O)Nc4ccc(OC(C)C)cc4)CC3)ncnc2cc1OCCCN1CCCCC1 , PKN2 (human), residual activity = 110

Next:
Summary: O=c1cc(N2CCOCC2)oc2c(-c3ccccc3)cccc12 , PKN2 (human), residual activity = 98.6

Summary: COc1cccc(-c2cc(=O)c3ccccc3o2)c1N , PKN2 (human), residual activity = 81

Summary: COc1cc2ncnc(Nc3ccc(O)c(Br)c3)c2cc1OC , PKN2 (human), residual activity = 97.2

Summary: Nc1ncnc2c1cnn2-c1ccccc1 , PKN2 (human), residual activity = 125

Summary: CCOc1cc2ncnc(Nc3cccc(Br)c3)c2cc1OCC , PKN2 (human), residual activity = 90

----------
measured on: CDK6 CCND3 (human) (UniProt P30281+Q00534)
Sequence (P30281 whole entry, looked up): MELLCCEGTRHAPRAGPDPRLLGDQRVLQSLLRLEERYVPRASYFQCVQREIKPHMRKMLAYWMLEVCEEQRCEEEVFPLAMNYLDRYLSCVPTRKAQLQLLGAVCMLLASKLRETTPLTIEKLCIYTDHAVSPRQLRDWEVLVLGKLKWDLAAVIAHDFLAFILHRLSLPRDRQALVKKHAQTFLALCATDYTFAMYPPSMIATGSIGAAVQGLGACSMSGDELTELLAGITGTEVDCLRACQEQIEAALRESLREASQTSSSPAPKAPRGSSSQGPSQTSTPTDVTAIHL
Sequence (Q00534 whole entry, looked up): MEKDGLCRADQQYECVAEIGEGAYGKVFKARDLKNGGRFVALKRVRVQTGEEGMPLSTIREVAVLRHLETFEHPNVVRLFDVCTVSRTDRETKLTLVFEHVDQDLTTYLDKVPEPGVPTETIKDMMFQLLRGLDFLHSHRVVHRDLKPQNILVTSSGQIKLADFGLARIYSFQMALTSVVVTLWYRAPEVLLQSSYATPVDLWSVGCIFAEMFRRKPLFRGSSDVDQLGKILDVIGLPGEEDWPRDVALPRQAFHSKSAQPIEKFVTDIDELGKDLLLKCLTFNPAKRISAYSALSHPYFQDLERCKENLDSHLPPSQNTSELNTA
test: radiometric filter-binding kinase assay, Kinase HotSpot
experimental context: compound 0.5 µM; ATP 10 µM
This section presents molecules with their documented residual activity values.
Write the figure, then the unit, nothing else.

Solved entries:
Summary: N/C(=N\N=C/c1ccc(-c2cccc([N+](=O)[O-])c2)o1)N[N+](=O)[O-] , CDK6 CCND3 (human) (UniProt P30281+Q00534), residual activity = 94.7%

Summary: COc1cccc(-c2cc(=O)c3ccccc3o2)c1N , CDK6 CCND3 (human) (UniProt P30281+Q00534), residual activity = 99.3%

Summary: N#C/C(=C1/Nc2ccccc2S1)c1ccnc(NCCc2cccnc2)n1 , CDK6 CCND3 (human) (UniProt P30281+Q00534), residual activity = 94.6%

Summary: O=C(O)c1ccc2c3c1cccc3c(=O)n1c3ccccc3nc21 , CDK6 CCND3 (human) (UniProt P30281+Q00534), residual activity = 105%

Summary: O=c1c(-c2ccc(F)cc2)c(-c2ccncc2)[nH]n1-c1ccc(Cl)cc1 , CDK6 CCND3 (human) (UniProt P30281+Q00534), residual activity = 93.7%

Read the next record carefully.
Summary: CCCCc1c(-c2ccc(O)cc2)[nH]c2nccnc12 , CDK6 CCND3 (human) (UniProt P30281+Q00534), residual activity = 84.6%

----------
measured on: TAOK2 (human) (UniProt Q9UL54)
Sequence (Q9UL54 whole entry, looked up): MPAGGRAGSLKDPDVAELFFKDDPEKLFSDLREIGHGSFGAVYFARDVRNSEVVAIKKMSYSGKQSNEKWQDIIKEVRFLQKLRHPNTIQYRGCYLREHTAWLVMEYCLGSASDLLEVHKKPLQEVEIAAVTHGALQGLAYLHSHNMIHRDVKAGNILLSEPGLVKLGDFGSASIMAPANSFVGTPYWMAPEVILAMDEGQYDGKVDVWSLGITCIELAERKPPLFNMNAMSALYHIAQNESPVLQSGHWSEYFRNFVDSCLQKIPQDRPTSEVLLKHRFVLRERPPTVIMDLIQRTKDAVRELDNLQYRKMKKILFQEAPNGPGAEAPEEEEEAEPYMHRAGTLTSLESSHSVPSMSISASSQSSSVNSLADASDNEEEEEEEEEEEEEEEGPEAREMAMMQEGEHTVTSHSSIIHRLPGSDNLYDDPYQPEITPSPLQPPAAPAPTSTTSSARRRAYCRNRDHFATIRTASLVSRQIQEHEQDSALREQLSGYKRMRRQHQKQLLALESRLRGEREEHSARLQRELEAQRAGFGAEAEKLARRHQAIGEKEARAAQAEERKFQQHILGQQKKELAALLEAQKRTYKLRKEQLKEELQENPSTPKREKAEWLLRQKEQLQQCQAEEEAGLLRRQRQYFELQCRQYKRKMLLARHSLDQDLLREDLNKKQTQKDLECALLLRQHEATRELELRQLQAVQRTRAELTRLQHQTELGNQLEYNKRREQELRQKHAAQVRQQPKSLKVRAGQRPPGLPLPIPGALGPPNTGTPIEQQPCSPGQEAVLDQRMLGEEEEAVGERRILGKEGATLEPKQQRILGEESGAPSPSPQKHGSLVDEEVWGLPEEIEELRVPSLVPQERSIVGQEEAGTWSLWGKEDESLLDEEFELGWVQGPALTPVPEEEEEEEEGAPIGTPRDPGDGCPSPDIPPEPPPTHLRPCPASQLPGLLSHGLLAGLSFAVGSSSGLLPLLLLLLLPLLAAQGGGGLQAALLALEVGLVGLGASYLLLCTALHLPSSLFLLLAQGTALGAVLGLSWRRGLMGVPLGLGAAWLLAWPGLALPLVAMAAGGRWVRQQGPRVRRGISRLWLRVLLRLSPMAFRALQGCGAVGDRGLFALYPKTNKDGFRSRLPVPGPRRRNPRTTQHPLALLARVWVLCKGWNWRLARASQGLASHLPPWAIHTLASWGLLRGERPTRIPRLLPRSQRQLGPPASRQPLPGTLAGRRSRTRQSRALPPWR
test: radiometric filter-binding kinase assay, Kinase HotSpot
experimental context: compound 0.5 µM; ATP 10 µM
This section presents molecules with their documented residual activity values.
Just the number in %, nothing appended.

residual activity in this record for O=C(c1ccccc1)c1ccc(N2CCOCC2)cc1O : 107

residual activity in this record for Cn1cc(/C=C2\C(=O)Nc3ccc(S(N)(=O)=O)cc32)c2ccccc21 : 86.4

residual activity in this record for O=c1[nH]c2ccccc2n1C1CCN(Cc2ccc(-c3nc4cc5[nH]cnc5cc4nc3-c3ccccc3)cc2)CC1 : 98.8

residual activity in this record for CCCCc1c(-c2ccc(O)cc2)[nH]c2nccnc12 : 62.7

residual activity in this record for COc1cc2c(Nc3ccc(Br)cc3F)ncnc2cc1OCC1CCN(C)CC1 : 104

Next:
residual activity in this record for N#C/C(=C1/Nc2ccccc2S1)c1ccnc(NCCc2cccnc2)n1 : 86.4

residual activity in this record for O=C1NC(=O)c2cc(Nc3ccc(F)cc3)c(Nc3ccc(F)cc3)cc21 : 94.7

residual activity in this record for O=c1c(-c2ccc(F)cc2)c(-c2ccncc2)[nH]n1-c1ccc(Cl)cc1 : 101

----------
This section presents compounds with their documented residual activity values.
measured on: JAK1 JH1 catalytic (human)
test: radiometric filter-binding kinase assay, Kinase HotSpot
experimental context: compound 0.5 µM; ATP 10 µM
Just the number in %, nothing appended.

Summary: c1ccc(-c2cnc(Nc3ccc(OCCN4CCCC4)cc3)s2)cc1 , JAK1 JH1 catalytic (human), residual activity = 101

Summary: CN[C@@H]1C[C@H]2O[C@@](C)([C@@H]1OC)n1c3ccccc3c3c4c(c5c6ccccc6n2c5c31)C(=O)NC4 , JAK1 JH1 catalytic (human), residual activity = 2.07

Summary: O=c1c(-c2ccc(F)cc2)c(-c2ccncc2)[nH]n1-c1ccc(Cl)cc1 , JAK1 JH1 catalytic (human), residual activity = 103

Summary: FC(F)(F)c1ccc(/C=C/c2nc(COc3ccc(CCCCn4ccnn4)cc3)co2)cc1 , JAK1 JH1 catalytic (human), residual activity = 103

Summary: CCc1nc(-c2ccc(OC)cc2)[nH]c1-c1ccncc1 , JAK1 JH1 catalytic (human), residual activity = 110

Next:
Summary: COc1cc2ncnc(Nc3ccc(O)c(Br)c3)c2cc1OC , JAK1 JH1 catalytic (human), residual activity = 81.5

----------
measured on: CDK9 CCNT1 (human) (UniProt P50750+O60563)
test: radiometric filter-binding kinase assay, Kinase HotSpot
experimental context: compound 0.5 µM; ATP 10 µM
endpoint name: residual activity

residual activity in this record for O=C(O)c1ccc2c3c1cccc3c(=O)n1c3ccccc3nc21 : 78.3%

Next:
residual activity in this record for CCCCc1c(-c2ccc(O)cc2)[nH]c2nccnc12 : 45.9%

residual activity in this record for CC(C)(C)n1nc(Cc2cccc3ccccc23)c2c(N)ncnc21 : 102%

residual activity in this record for N#C/C(=C1/Nc2ccccc2S1)c1ccnc(NCCc2cccnc2)n1 : 23.3%

residual activity in this record for Nc1ncnc2c1cnn2-c1ccccc1 : 109%

residual activity in this record for Cn1cc(/C=C2\C(=O)Nc3ccc(S(N)(=O)=O)cc32)c2ccccc21 : 65%

residual activity in this record for COc1cc2c(N3CCN(C(=O)Nc4ccc(OC(C)C)cc4)CC3)ncnc2cc1OCCCN1CCCCC1 : 100%

residual activity in this record for COc1cccc(-c2cc(=O)c3ccccc3o2)c1N : 93.6%

----------
measured on: GSK3A (human) (UniProt P49840)
Sequence (P49840 whole entry, looked up): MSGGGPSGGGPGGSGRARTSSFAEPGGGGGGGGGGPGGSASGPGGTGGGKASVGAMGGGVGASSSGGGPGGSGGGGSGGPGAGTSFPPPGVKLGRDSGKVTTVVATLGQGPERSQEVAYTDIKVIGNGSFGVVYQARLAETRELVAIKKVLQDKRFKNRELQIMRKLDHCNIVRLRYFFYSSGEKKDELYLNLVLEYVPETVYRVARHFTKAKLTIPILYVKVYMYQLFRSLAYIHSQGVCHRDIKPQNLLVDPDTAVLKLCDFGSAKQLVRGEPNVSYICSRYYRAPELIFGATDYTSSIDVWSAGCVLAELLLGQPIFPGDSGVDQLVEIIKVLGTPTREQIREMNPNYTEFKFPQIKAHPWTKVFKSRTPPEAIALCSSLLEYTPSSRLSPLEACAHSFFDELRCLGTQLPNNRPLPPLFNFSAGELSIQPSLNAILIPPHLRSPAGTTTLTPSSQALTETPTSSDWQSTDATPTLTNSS
test: radiometric filter-binding kinase assay, Kinase HotSpot
experimental context: compound 0.5 µM; ATP 10 µM
This section presents compounds with their documented residual activity values.
Just the number in %, nothing appended.

residual activity in this record for N#Cc1c(NC(=O)c2cccc3ccccc23)sc2c1CCCC2 : 97.2

Next:
residual activity in this record for N#CCCc1ccc2c(c1)-c1[nH]c3ccc([N+](=O)[O-])cc3c1CC(=O)N2 : 0.804

residual activity in this record for O=c1c(-c2ccc(F)cc2)c(-c2ccncc2)[nH]n1-c1ccc(Cl)cc1 : 93.3

residual activity in this record for CCCCc1c(-c2ccc(O)cc2)[nH]c2nccnc12 : 57.7

residual activity in this record for Nc1ncnc2c1cnn2-c1ccccc1 : 90.3

residual activity in this record for O=c1c2ccccc2[nH]c(=S)n1CCN1CCC(=C(c2ccc(F)cc2)c2ccc(F)cc2)CC1 : 104

residual activity in this record for N#C/C(=C1/Nc2ccccc2S1)c1ccnc(NCCc2cccnc2)n1 : 2.42

residual activity in this record for O=C(O)c1ccc2c3c1cccc3c(=O)n1c3ccccc3nc21 : 87.3

residual activity in this record for CCc1nc(-c2ccc(OC)cc2)[nH]c1-c1ccncc1 : 99.1

residual activity in this record for O=c1[nH]c2ccccc2n1C1CCN(Cc2ccc(-c3nc4cc5[nH]cnc5cc4nc3-c3ccccc3)cc2)CC1 : 100

----------
measured on: STK16 (human) (UniProt O75716)
Sequence (O75716 whole entry, looked up): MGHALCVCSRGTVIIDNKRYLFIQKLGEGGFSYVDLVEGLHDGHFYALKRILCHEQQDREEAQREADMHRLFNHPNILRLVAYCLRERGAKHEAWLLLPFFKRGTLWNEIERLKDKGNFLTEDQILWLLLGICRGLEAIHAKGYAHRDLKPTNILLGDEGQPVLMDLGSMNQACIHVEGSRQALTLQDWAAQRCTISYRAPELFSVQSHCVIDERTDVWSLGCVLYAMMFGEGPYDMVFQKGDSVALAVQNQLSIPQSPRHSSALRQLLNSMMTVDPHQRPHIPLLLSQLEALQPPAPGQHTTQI
test: radiometric filter-binding kinase assay, Kinase HotSpot
experimental context: compound 0.5 µM; ATP 10 µM
This section presents compounds with their documented residual activity values.
Write the figure, then the unit, nothing else.

residual activity in this record for FC(F)(F)c1ccc(/C=C/c2nc(COc3ccc(CCCCn4ccnn4)cc3)co2)cc1 : 104%

residual activity in this record for Nc1ncnc2c1cnn2-c1ccccc1 : 94.3%

residual activity in this record for COc1cc2c(N3CCN(C(=O)Nc4ccc(OC(C)C)cc4)CC3)ncnc2cc1OCCCN1CCCCC1 : 103%

residual activity in this record for Cn1cc(/C=C2\C(=O)Nc3ccc(S(N)(=O)=O)cc32)c2ccccc21 : 78.7%

----------
measured on: TAOK1 (human) (UniProt Q7L7X3)
Sequence (Q7L7X3 whole entry, looked up): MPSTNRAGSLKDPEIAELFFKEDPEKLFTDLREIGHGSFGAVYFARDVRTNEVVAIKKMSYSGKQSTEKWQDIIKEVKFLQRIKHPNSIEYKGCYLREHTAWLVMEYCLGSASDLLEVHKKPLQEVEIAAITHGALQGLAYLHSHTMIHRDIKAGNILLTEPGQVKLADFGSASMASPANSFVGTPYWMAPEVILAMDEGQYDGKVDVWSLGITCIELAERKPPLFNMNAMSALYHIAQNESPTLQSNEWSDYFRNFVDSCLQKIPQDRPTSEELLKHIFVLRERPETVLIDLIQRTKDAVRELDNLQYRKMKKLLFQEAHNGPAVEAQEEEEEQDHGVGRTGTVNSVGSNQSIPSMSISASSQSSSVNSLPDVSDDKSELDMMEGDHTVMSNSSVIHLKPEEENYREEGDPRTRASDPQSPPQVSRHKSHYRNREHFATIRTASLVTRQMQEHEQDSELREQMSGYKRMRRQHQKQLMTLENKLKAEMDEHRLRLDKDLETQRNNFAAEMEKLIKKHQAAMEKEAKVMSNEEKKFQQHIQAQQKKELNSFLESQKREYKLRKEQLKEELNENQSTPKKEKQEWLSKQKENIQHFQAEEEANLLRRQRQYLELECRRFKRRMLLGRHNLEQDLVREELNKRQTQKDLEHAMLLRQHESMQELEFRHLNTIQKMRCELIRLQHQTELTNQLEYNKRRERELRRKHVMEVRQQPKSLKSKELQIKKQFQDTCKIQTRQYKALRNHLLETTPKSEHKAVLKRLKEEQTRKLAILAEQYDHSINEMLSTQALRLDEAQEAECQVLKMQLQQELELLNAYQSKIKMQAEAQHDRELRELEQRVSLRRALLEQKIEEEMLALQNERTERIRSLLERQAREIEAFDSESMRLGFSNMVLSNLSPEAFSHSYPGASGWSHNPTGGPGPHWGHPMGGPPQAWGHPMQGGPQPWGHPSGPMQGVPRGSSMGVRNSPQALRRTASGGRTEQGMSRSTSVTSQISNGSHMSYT
test: radiometric filter-binding kinase assay, Kinase HotSpot
experimental context: compound 0.5 µM; ATP 10 µM
This section presents molecules with their documented residual activity values.
Just the number in %, nothing appended.

residual activity in this record for O=c1[nH]c2ccccc2n1C1CCN(Cc2ccc(-c3nc4cc5[nH]cnc5cc4nc3-c3ccccc3)cc2)CC1 : 102
